- subjectOfTest: human TGFßRII (antigen of the Octet experiments) (human, UniProt P37173 23-166)
- Sequence (P37173 23-166): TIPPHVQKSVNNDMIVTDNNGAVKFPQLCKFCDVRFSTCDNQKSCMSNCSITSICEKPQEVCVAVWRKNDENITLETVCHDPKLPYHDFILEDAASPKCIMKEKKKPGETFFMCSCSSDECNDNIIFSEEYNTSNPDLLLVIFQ
Each entry below carries its recorded pKd.
Please treat pKd as minus the base-10 logarithm of the molar concentration.

The cases that follow already have their pKd on record.
• XENP36172 H1.189 L1 (antibody, V domains shown) VH: QLQVQESGPGLVKPSETLSLTCTVSGGSISSSYFSWGWIRQPPGKGLEWIGSFYYGGKTYYNPSLKSRATISIDTSKNQFSLKLSSVTAADTAVYYCARGPTLIRGVIDSWGQGTLVTVSS VL: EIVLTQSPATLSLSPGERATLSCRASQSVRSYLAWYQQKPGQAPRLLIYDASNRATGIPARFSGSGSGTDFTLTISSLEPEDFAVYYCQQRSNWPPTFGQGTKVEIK = 8.16
• XENP36177 H1.194 L1 (antibody, V domains shown) VH: QLQVQESGPGLVKPSETLSLTCTVSGGSISTSYFSWGWIRQPPGKGLEWIGSFYYGGKTYYNPSLKSRATISIDTSKNQFSLKLSSVTAADTAVYYCARGPTTIRGVIDSWGQGTLVTVSS VL: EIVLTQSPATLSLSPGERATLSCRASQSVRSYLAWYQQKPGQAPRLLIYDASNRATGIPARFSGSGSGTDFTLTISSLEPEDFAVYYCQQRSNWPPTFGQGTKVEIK = 8.01

As a next step, examine the binder that follows.
Q. Tell us which pKd value is on record for XENP36185 H1.202 L1 (antibody, V domains shown) VH: QLQVQESGPGLVKPSETLSLTCTVSGGSISNAYFSWGWIRQPPGKGLEWIGSFYYGGKTYYNPSLKSRATISIDTSKNQFSLKLSSVTAADTAVYYCARGPTTIRGVIDSWGQGTLVTVSS VL: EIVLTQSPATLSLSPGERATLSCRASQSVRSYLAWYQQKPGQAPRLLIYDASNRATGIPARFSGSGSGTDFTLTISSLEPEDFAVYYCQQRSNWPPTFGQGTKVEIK
A. 8.13

Every entry's value here was drawn from patent US20220144956A1.
